Each item that follows carries a reported % inhibition.
# System: human PKK mRNA
# Assay Text: Antisense inhibition of human PKK mRNA in HepaRG cells, 3,000 nM (Example 1)
# Format: cell-based
# Assay Conditions: Table 3; HepaRG cells, electroporation with 3,000 nM antisense oligonucleotide, approx. 24 hours; PKK mRNA by RT-PCR (RTS3454), relative to untreated control cells
Strand notation (5' to 3'): a small letter for the sugar, then the base; units joined by * are phosphorothioate-linked, units joined directly phosphodiester-linked; [ ] holds rarer units or linkages, { } end groups; capitals alone tell only the bases. e = 2'-O-(2-methoxyethyl) (MOE); [5mC] = 5-methylcytosine; d = 2'-deoxy (DNA)
The figure you give is taken to be in %; do not add the unit.

Entry under review: 531131 (antisense eT*eA*eG*eA*eA*dA*dG*dA*dG*dT*dA*dA*dG*d[5mC]*d[5mC]*eT*eT*e[5mC]*eA*e[5mC]) [compound 531131] . Reported % inhibition?
0

Entry under review: 531109 (antisense eA*eG*e[5mC]*e[5mC]*e[5mC]*dA*dA*dG*dG*dA*dA*d[5mC]*dA*dT*d[5mC]*eT*e[5mC]*eA*e[5mC]*e[5mC]) [compound 531109] . Reported % inhibition?
52

Entry under review: 531143 (antisense e[5mC]*eA*eT*eG*eG*dA*dA*dA*dA*dA*dT*dT*dA*dA*dG*e[5mC]*eT*e[5mC]*eA*eT) [compound 531143] . Reported % inhibition?
0

Entry under review: 531119 (antisense eT*eA*eA*eA*e[5mC]*dT*d[5mC]*dT*dT*dA*d[5mC]*dA*dT*dT*dT*eA*eT*eA*eG*eA) [compound 531119] . Reported % inhibition?
0

Entry under review: 531150 (antisense eT*e[5mC]*e[5mC]*eT*eT*dA*dA*dT*dA*dG*dT*d[5mC]*dA*dT*dA*eG*e[5mC]*eA*eG*eG) [compound 531150] . Reported % inhibition?
48

Entry under review: 531104 (eA*e[5mC]*eT*eT*eG*dA*d[5mC]*d[5mC]*dT*dT*dA*d[5mC]*dT*dG*dT*eT*eT*eT*eA*eG; antisense) [compound 531104] . Reported % inhibition?
20

====

# Test system: human PKK mRNA
# Assay Text: Antisense inhibition of human PKK mRNA in HepaRG cells, 1,000 nM, MOE/deoxy/cEt oligonucleotides (Example 3)
# Type: cell-based
# Assay Conditions: HepaRG cells, electroporation with 1,000 nM antisense oligonucleotide, approximately 24 hours, primer probe set RTS3454, relative to untreated control cells; experiment of Table 23
Strand notation (5' to 3'): a small letter for the sugar, then the base; units joined by * are phosphorothioate-linked, units joined directly phosphodiester-linked; [ ] holds rarer units or linkages, { } end groups; capitals alone tell only the bases. e = 2'-O-(2-methoxyethyl) (MOE); k = constrained ethyl (cEt); [5mC] = 5-methylcytosine; d = 2'-deoxy (DNA)
# binarize % inhibition: threshold 60% inclusive, high side True, low side False

Some entries whose results are on file:
>>> assigned_category("547747 (eT*e[5mC]*kA*d[5mC]*dT*dG*dT*dA*d[5mC]*dT*dA*dG*dT*kT*kT*e[5mC]) [compound 547747]")
"True"
>>> assigned_category("547977 (antisense e[5mC]*e[5mC]*kT*d[5mC]*d[5mC]*dA*dA*dA*dG*dT*d[5mC]*dA*dA*k[5mC]*kT*e[5mC]) [compound 547977]")
"False"
>>> assigned_category("547992 (antisense e[5mC]*e[5mC]*kT*dT*dA*d[5mC]*dA*dG*dT*d[5mC]*dT*dT*d[5mC]*kT*kG*eG) [compound 547992]")
"False"
>>> assigned_category("547995 (antisense eG*eT*kG*dT*d[5mC]*d[5mC]*d[5mC]*dA*dT*dA*d[5mC]*dG*d[5mC]*kA*kA*eT) [compound 547995]")
"True"

Confirm if % inhibition reported for the substance 547973 (antisense eA*eA*kG*dT*d[5mC]*dA*dA*d[5mC]*dT*d[5mC]*d[5mC]*d[5mC]*dG*kG*kG*eT) [compound 547973] is 60% or above.
True

Confirm if % inhibition reported for the substance 547939 (eT*eT*kT*dG*dT*dG*dA*d[5mC]*dT*d[5mC]*dG*dA*dT*kT*kT*eT; antisense) [compound 547939] is 60% or above.
True

Confirm if % inhibition reported for the substance 547933 (eT*e[5mC]*kG*dA*dT*dT*dT*dT*d[5mC]*d[5mC]*dA*dT*dA*k[5mC]*kA*eT; antisense) [compound 547933] is 60% or above.
False

Confirm if % inhibition reported for the substance 547990 (antisense eA*e[5mC]*kT*dG*dA*d[5mC]*dA*dG*d[5mC]*dG*dA*dA*dT*k[5mC]*kA*eT) [compound 547990] is 60% or above.
False

Confirm if % inhibition reported for the substance 547969 (antisense eT*e[5mC]*k[5mC]*d[5mC]*dG*dG*dG*dT*dA*dA*dA*dT*dT*kT*kT*eA) [compound 547969] is 60% or above.
False

Confirm if % inhibition reported for the substance 547975 (antisense e[5mC]*eA*kA*dA*dG*dT*d[5mC]*dA*dA*d[5mC]*dT*d[5mC]*d[5mC]*k[5mC]*kG*eG) [compound 547975] is 60% or above.
False

Confirm if % inhibition reported for the substance 547947 (eG*eG*kA*dA*d[5mC]*dT*dT*dG*dG*dT*dG*dT*dG*k[5mC]*k[5mC]*eA; antisense) [compound 547947] is 60% or above.
True

Confirm if % inhibition reported for the substance 547952 (e[5mC]*eA*kG*dA*dT*dA*dT*dG*dG*dT*dG*dT*dT*kT*kT*e[5mC]; antisense) [compound 547952] is 60% or above.
False

Origin of measurements: patent US11840686B2
